Heads up, these molecules all have MIC values measured for Staphylococcus aureus ATCC29213.

Here are 3 molecules together with their reported answers.
COc1ccc(-c2nc3ccc(-c4ccc5[nH]c(-c6ccccc6)nc5c4)cc3[nH]2)cc1 [Compound 10]
< 1 µg/mL
Nc1ccc(-c2nc3cc(-c4ccc5nc(-c6ccc(N)cc6)[nH]c5c4)ccc3[nH]2)cc1 [Compound 1]
< 1 µg/mL
Nc1ccc(-c2nc3cc(-c4ccc5[nH]c(-c6ccccc6)nc5c4)ccc3[nH]2)cc1 [Compound 9]
1 to 16 µg/mL

Continue with the molecule presented below.
What the record says about Cn1c(-c2ccc(N)cc2)nc2cc(-c3ccc4[nH]c(-c5ccc(N)cc5)nc4c3)ccc21 [Compound 5] : MIC is 1 to 16 µg/mL

====

test system: Streptococcus pneumoniae ATCC49619
Each record here notes measured MIC.

So the reported MIC for c1cc(-c2nc3cc(-c4ccc5[nH]c(-c6ccncc6)nc5c4)ccc3[nH]2)ccn1 , on Streptococcus pneumoniae ATCC49619, turned out to be < 1 µg/mL

So the reported MIC for Nc1ccc(-c2nc3cc(-c4ccc5[nH]c(-c6ccc(N)nc6)nc5c4)ccc3[nH]2)cn1 , on Streptococcus pneumoniae ATCC49619, turned out to be < 1 µg/mL

So the reported MIC for Nc1cccc(-c2nc3cc(-c4ccc5[nH]c(-c6cccc(N)c6)nc5c4)ccc3[nH]2)c1 , on Streptococcus pneumoniae ATCC49619, turned out to be 1 to 16 µg/mL

So the reported MIC for Nc1ccc(-c2nc3cc(-c4ccc5nc(-c6ccc(N)cc6)[nH]c5c4)ccc3[nH]2)cc1 , on Streptococcus pneumoniae ATCC49619, turned out to be < 1 µg/mL

====

Heads up, these compounds all have MIC values measured for Staphylococcus aureus ATCC29213.

Here are 3 compounds together with their reported answers.
Nc1cccc(-c2nc3cc(-c4ccc5[nH]c(-c6cccc(N)c6)nc5c4)ccc3[nH]2)c1 [Compound 2]
1 to 16 mg/L
COc1ccc(-c2nc3cc(-c4ccc5[nH]c(-c6ccc(OC)cc6)nc5c4)ccc3[nH]2)cc1 [Compound 7]
< 1 mg/L
CNc1ccc(-c2nc3cc(-c4ccc5[nH]c(-c6ccc(NC)cc6)nc5c4)ccc3[nH]2)cc1 [Compound 6]
< 1 mg/L

What the record says about Nc1ccc(-c2nc3cc(-c4ccc5[nH]cnc5c4)ccc3[nH]2)cc1 [Compound 8] : MIC is 1 to 16 mg/L

What the record says about Cn1c(-c2ccc(N)cc2)nc2ccc(-c3ccc4[nH]c(-c5ccc(N)cc5)nc4c3)cc21 [Compound 4] : MIC is > 64 mg/L

What the record says about Nc1ccc(-c2nc3cc(-c4ccc5[nH]c(-c6ccc(N)nc6)nc5c4)ccc3[nH]2)cn1 [Compound 11] : MIC is > 64 mg/L

What the record says about Oc1ccc(-c2nc3cc(-c4ccc5[nH]c(-c6ccc(O)cc6)nc5c4)ccc3[nH]2)cc1 [Compound 3] : MIC is < 1 mg/L

What the record says about c1cc(-c2nc3cc(-c4ccc5[nH]c(-c6ccncc6)nc5c4)ccc3[nH]2)ccn1 [Compound 12] : MIC is > 64 mg/L
